- System: zebrafish
- protocol_summary: Zebrafish acute toxicity assay
- Type: in vivo
- experimental_context: zebrafish, 1 mg/L, 96h
value_type: Survival percent
// return a plain number; no unit text

Sample records with Survival percent:
O=C(NCCc1c[nH]c2ccccc12)c1csc(-c2ccccc2)n1 [Compound 6a]: 73
O=S(=O)([O-])[O-].[Cu+2] [CuSO4, cupric sulfate anhydrous, reference compound]: 43

Assay zebrafish, sample CCCCc1nc(C(=O)NCCc2c[nH]c3ccccc23)cs1 [Compound 6j] , Survival percent read: 80

// Survival percent (zebrafish) for CC(=O)c1nc(C(=O)NCCc2c[nH]c3ccccc23)cs1 [bacillamide A] = 83
